biological target: muscarinic cholinergic receptor; test: [^3 H]-Cis-methyldioxolane (^3 H-CD) Binding Assay (High Affinity); details: rat cerebral cortex; ^3 H-CD 1.0 nM; 25° C., 120 minutes, pH 7.4; high affinity agonist conformation
Category key, based on recorded IC50: lowest = under 800 nM, middle = from 800 nM up to 4000 nM, highest = 4000 nM and over

# count of solved cases: 5
- O=C(N1CCC[C@H]1C#CCN1CCCC1)C(F)(F)F: highest
- CC(=O)N1CCC[C@H]1C#CCN1CCCC1: middle
- O=CN1CCC[C@H]1C#CCN1CCCC1: highest
- O=CN1CCC[C@@H]1C#CCN1CCCC1: middle
- O=C(N1CCC[C@@H]1C#CCN1CCCC1)C(F)(F)F: middle

QUERY: Which class is correct for the following compound? CC(C)(C)OC(=O)N1CCC[C@H]1C#CCN1CCCC1
RESULT: lowest

QUERY: Which class is correct for the following compound? CS(=O)(=O)N1CCC[C@H]1C#CCN1CCCC1
RESULT: highest

QUERY: Which class is correct for the following compound? C(#C[C@H]1CCCN1)CN1CCCC1
RESULT: lowest

QUERY: Which class is correct for the following compound? CS(=O)(=O)N1CCC[C@@H]1C#CCN1CCCC1
RESULT: middle

QUERY: Which class is correct for the following compound? CC(C)(C)OC(=O)N1CCC[C@@H]1C#CCN1CCCC1
RESULT: lowest

----------
target: muscarinic cholinergic receptor; assay: [^3 H] Quinuclidinyl Benzilate (^3 H-QNB) Binding Assay; details: rat cerebral cortex; ^3 H-QNB 0.25 nM; 25° C., 120 minutes, pH 7.4; dihydrochloride
Counter-ions that a name gives are not always drawn.
Exercise: for every item that follows, state its recorded pIC50.
Give bare numbers, as −log10 of the molar value.

- C(#C[C@H]1CCCN1)CN1CCCC1 [dihydrochloride]: 5.57

Now consider a different compound.
QUERY: Please look at this compound and report its pIC50: O=C(N1CCC[C@@H]1C#CCN1CCCC1)C(F)(F)F [dihydrochloride]
RESULT: 4.37

----------
target: muscarinic cholinergic receptor; assay: [^3 H] Quinuclidinyl Benzilate (^3 H-QNB) Binding Assay; settings: rat cerebral cortex; ^3 H-QNB 0.25 nM; 25° C., 120 minutes, pH 7.4; hydrochloride
Where a name gives a salt, the structure may show the parent alone.
Exercise: for every item that follows, state its recorded pIC50.
Numbers only, as −log10 of the molar value.

Sample records with pIC50:
* CS(=O)(=O)N1CCC[C@@H]1C#CCN1CCCC1 [hydrochloride] | 4.60
* O=C(N1CCC[C@H]1C#CCN1CCCC1)C(F)(F)F [hydrochloride] | 4.80
* O=CN1CCC[C@H]1C#CCN1CCCC1 [hydrochloride] | 4.06
* CC(=O)N1CCC[C@H]1C#CCN1CCCC1 [hydrochloride] | 4.14

Now consider a different compound.
QUERY: Please look at this compound and report its pIC50: CS(=O)(=O)N1CCC[C@H]1C#CCN1CCCC1 [hydrochloride]
RESULT: 4.33

----------
molecular target: muscarinic cholinergic receptor; assay: [^3 H] Quinuclidinyl Benzilate (^3 H-QNB) Binding Assay; conditions: rat cerebral cortex; ^3 H-QNB 0.25 nM; 25° C., 120 minutes, pH 7.4
// assign 1.0 if IC50 falls strictly below 40 µM, else 0.0 (ties count as 0.0)

QUERY: Check if IC50 falls below 40 µM for CS(=O)(=O)N1CCC[C@@H]1C#CCN1CCCC1 .
RESULT: 1.0

QUERY: Check if IC50 falls below 40 µM for CS(=O)(=O)N1CCC[C@H]1C#CCN1CCCC1 .
RESULT: 0.0

QUERY: Check if IC50 falls below 40 µM for CC(=O)N1CCC[C@H]1C#CCN1CCCC1 .
RESULT: 0.0

QUERY: Check if IC50 falls below 40 µM for O=C(N1CCC[C@H]1C#CCN1CCCC1)C(F)(F)F .
RESULT: 1.0

QUERY: Check if IC50 falls below 40 µM for CC(C)(C)OC(=O)N1CCC[C@@H]1C#CCN1CCCC1 .
RESULT: 1.0

QUERY: Check if IC50 falls below 40 µM for O=CN1CCC[C@H]1C#CCN1CCCC1 .
RESULT: 0.0

----------
Exercise: for every item that follows, state its recorded IC50.
biological target: muscarinic cholinergic receptor; assay: [^3 H]-Cis-methyldioxolane (^3 H-CD) Binding Assay (High Affinity); conditions: rat cerebral cortex; ^3 H-CD 1.0 nM; 25° C., 120 minutes, pH 7.4; high affinity agonist conformation; dihydrochloride
Counter-ions that a name gives are not always drawn.
One number for each entry, in µM.

* O=C(N1CCC[C@@H]1C#CCN1CCCC1)C(F)(F)F [dihydrochloride] | 8.57

QUERY: Report measured IC50 on muscarinic cholinergic receptor; entry: C(#C[C@H]1CCCN1)CN1CCCC1 [dihydrochloride]
RESULT: 0.742

----------
target: muscarinic cholinergic receptor; test: [^3 H]-Cis-methyldioxolane (^3 H-CD) Binding Assay (High Affinity); details: rat cerebral cortex; ^3 H-CD 1.0 nM; 25° C., 120 minutes, pH 7.4; high affinity agonist conformation; hydrochloride
Structures can show the parent of a compound that is named as a salt.
measuredMetric: IC50 (µM)
One number for each entry, in µM.

Sample records with IC50:
• O=C(N1CCC[C@H]1C#CCN1CCCC1)C(F)(F)F [hydrochloride] = 3.83
• CS(=O)(=O)N1CCC[C@H]1C#CCN1CCCC1 [hydrochloride] = 8.08
• O=CN1CCC[C@H]1C#CCN1CCCC1 [hydrochloride] = 11.1
• CS(=O)(=O)N1CCC[C@@H]1C#CCN1CCCC1 [hydrochloride] = 2.45

QUERY: Please look at this molecule and report its IC50: CC(=O)N1CCC[C@H]1C#CCN1CCCC1 [hydrochloride]
RESULT: 3.26

----------
target: muscarinic cholinergic receptor; assay: [^3 H] Quinuclidinyl Benzilate (^3 H-QNB) Binding Assay; conditions: rat cerebral cortex; ^3 H-QNB 0.25 nM; 25° C., 120 minutes, pH 7.4
Exercise: for every item that follows, state its recorded IC50.
Numbers only, in µM.

Sample records with IC50:
• C(#C[C@H]1CCCN1)CN1CCCC1 = 3.1
• O=CN1CCC[C@@H]1C#CCN1CCCC1 = 34
• CC(C)(C)OC(=O)N1CCC[C@H]1C#CCN1CCCC1 = 4.2

Now consider a different compound.
QUERY: Please look at this compound and report its IC50: CC(=O)N1CCC[C@@H]1C#CCN1CCCC1
RESULT: 8.8
